// provenance: patent US10456509B2

- protocol_details: Solubility Screening of CHG in vehicles, Vacuum Method
- applied_conditions: CHG 10 wt. % in vehicle, 23-50° C., Vacuum Method
test_readout: Final State

> print(dat)
                                    compound   result.value
 1  CCOCCOCCO [Diethyleneglycol monoethyl ether]  Inhomogeneous
 2  CC(O)CO (stereo not shown) [1,2-propanediol]    Homogeneous
 3  CC(C)OC(=O)[C@H](O)[C@@H](O)C(=O)OC(C)C [Diisopropyl-L-Tartrate]  Inhomogeneous
 4  CC(O)CCC(C)O (stereo not shown) [2,5-hexanediol]  Inhomogeneous
 5  OCCCCC(O)CO (stereo not shown) [1,2,6-trihydroxyhexane]    Homogeneous
 6  COCCOCCO [Diethyleneglycol monomethyl ether]    Homogeneous
 7  CCCCCCC(O)CO (stereo not shown) [1,2-octanediol]    Homogeneous
 8     CC(C)(O)CCO [3-methyl-1,3-butanediol]  Inhomogeneous
 9  CCOC(=O)[C@@H](O)[C@H](O)C(=O)OCC [Diethyl-D-Tartrate]    Homogeneous
10               OCCCCCCCCO [1,8-octanediol]  Inhomogeneous

Could you share which Final State value was measured for CCCCCCCCO [Example 1-octanol, 1-octanol] ?
Inhomogeneous

Could you share which Final State value was measured for OC1CCC(O)CC1 (stereo not shown) [1,4-cyclohexanediol] ?
Inhomogeneous

Could you share which Final State value was measured for OCC1(O)COC(O)(CO)CO1 (stereo not shown) [1,3-dihydroxyacetone dimer] ?
Homogeneous

====

- protocol_details: Solubility Screening of CHG in vehicles, Vacuum Method
test_readout: Final State

> print(dat)
                                   molecule   result.value
1    CC(O)COC(C)COC(C)CO (stereo not shown)  Inhomogeneous
2                               CCCCOCCOCCO  Inhomogeneous
3                                OCCOCCOCCO    Homogeneous
4  CCCCOC(=O)[C@H](O)[C@@H](O)C(=O)OCCCC [Dibutyl-L-Tartrate]    Homogeneous
